- target system: full-length 6x-His-tagged human G3BP1 (human, UniProt Q13283 1-466)
- Sequence (Q13283 whole entry): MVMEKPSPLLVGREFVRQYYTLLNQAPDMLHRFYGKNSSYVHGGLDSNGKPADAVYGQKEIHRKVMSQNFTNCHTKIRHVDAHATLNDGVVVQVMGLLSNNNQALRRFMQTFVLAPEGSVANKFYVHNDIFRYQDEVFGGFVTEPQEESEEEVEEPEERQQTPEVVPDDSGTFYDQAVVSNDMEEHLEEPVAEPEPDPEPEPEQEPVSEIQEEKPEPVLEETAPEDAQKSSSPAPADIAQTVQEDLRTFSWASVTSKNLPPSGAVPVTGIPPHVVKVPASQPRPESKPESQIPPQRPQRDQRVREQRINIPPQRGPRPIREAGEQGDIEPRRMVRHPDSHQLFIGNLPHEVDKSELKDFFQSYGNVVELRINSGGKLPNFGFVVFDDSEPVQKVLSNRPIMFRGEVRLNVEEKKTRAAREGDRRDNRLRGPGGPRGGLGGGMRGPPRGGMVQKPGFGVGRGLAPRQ
- assay info: SPR
property name: pKd
One number for each entry, as −log10 of the molar value.

Sure, the documented pKd for LTFGDFDEHEVDALASGITFGDFDD [nsP3 25-mer peptide] is 6.70
